# Tested on: CD2F1 mice, L1210 leukemia ip, survival T/C
# TEST: NCI In Vivo Anticancer Drug Screen. Data for tumor model L1210 Leukemia (intraperitoneal) in CD2F1 (CDF1) mice
# CONDITION SUMMARY: endpoint: mean survival time; dose: 100.0 mg/kg/injection; schedule: Q01DX009 (ip); vehicle: saline with Tween-80; higher = longer survival
Inconclusive results and toxic doses are left out.
Quick reference for T/C among some molecules
MEASURED QUANTITY: T/C

>>> assay_value("Cc1ccc(N=C(N)NC#N)cc1C")
"95 % of control"
>>> assay_value("CNC(=O)Oc1coc(CCl)cc1=O")
"101 % of control"
>>> assay_value("Oc1ccc(C=NCCN=Cc2ccc(O)cc2O)c(O)c1")
"87 % of control"
>>> assay_value("O=C(Nc1ccccc1SC(=O)c1ccccc1)c1ccccc1")
"87 % of control"
>>> assay_value("Cc1ccc2nc3c(nc2c1)-c1cccc2cccc-3c12")
"92 % of control"
>>> assay_value("Nc1nc(N)c(N=Nc2ccc(SCC(=O)O)cc2)c(=O)[nH]1")
"100 % of control"
>>> assay_value("Cc1cc(OCCOC(=O)Nc2c(Cl)cccc2Cl)cc(C)c1Cl")
"100 % of control"
>>> assay_value("CCOC(C(=O)OC1CCN(C)CC1)(c1ccccc1)c1ccccc1")
"93 % of control"
>>> assay_value("Cc1ccc(NC(=S)N2CCCC2)cc1")
"97 % of control"
>>> assay_value("COc1cc(C2c3cc4c(cc3C(O)C(CO)C2CO)OCO4)cc(OC)c1OC (stereo unspecified)")
"106 % of control"
>>> assay_value("O=C(Nc1ccc(Cl)c(C(F)(F)F)c1)Nc1cc(Cl)ccc1Sc1cc(Cl)c(Cl)cc1S(=O)(=O)O")
"100 % of control"
>>> assay_value("c1ccc2c(c1)nnc1ccccc12")
"100 % of control"
>>> assay_value("O=C(c1ccccc1)N1CC2CC3OC3c3cccc1c32 (stereo unspecified)")
"98 % of control"
>>> assay_value("O=C(N/N=C/c1ccccc1O)c1ccncc1")
"98 % of control"
>>> assay_value("O=C1C=CC(=O)N1c1ccc(Oc2ccc(Cl)cc2)cc1")
"107 % of control"
>>> assay_value("O=[N+]([O-])c1ccc(-n2[nH]nnc2=S)cc1")
"96 % of control"
>>> assay_value("COc1ccccc1C1(O)c2ccccc2Sc2cccc(OC)c21 (stereo unspecified)")
"86 % of control"
>>> assay_value("OC1(CSc2ccccc2)CCCCC1")
"102 % of control"
>>> assay_value("Nc1nnc[se]1")
"105 % of control"
>>> assay_value("COC(=O)c1ccc(C(=O)OC)cc1")
"95 % of control"
>>> assay_value("O=C1C(O)=C(c2ccccc2C(=O)O)C(=O)C(O)=C1c1ccccc1C(=O)O")
"92 % of control"
>>> assay_value("C/C=C\\c1ccc(OCCOC(=O)Nc2ccc(Cl)cc2OC)c(OC)c1")
"89 % of control"
>>> assay_value("Cc1ccc([N+](=O)[O-])cc1NC(=O)NNC(=O)CNC(=O)c1ccc(Cl)cc1")
"88 % of control"
>>> assay_value("CCCCCCCC(=O)Nc1ccc(C)c(C)c1")
"89 % of control"
>>> assay_value("CC1CNC(=S)S1 (stereo unspecified)")
"94 % of control"
>>> assay_value("O=S1(=O)c2ccccc2Oc2ccccc21")
"97 % of control"

---

Quick reference for T/C among some compounds
# Tested on: CD2F1 mice, L1210 leukemia ip, survival T/C
# TEST: NCI In Vivo Anticancer Drug Screen. Data for tumor model L1210 Leukemia (intraperitoneal) in CD2F1 (CDF1) mice
# CONDITION SUMMARY: endpoint: mean survival time; dose: 100.0 mg/kg/injection; schedule: Q01DX001 (ip); vehicle: Klucel (hydroxypropylcellulose) (HPC); higher = longer survival
Inconclusive results and toxic doses are left out.
MEASURED QUANTITY: T/C

>>> assay_value("CCCSP(SCCC)SCCC")
"96 % of control"
>>> assay_value("COC(=O)c1ccccc1-c1c(C)cccc1[N+](=O)[O-]")
"98 % of control"
>>> assay_value("CC(=O)C1CCC2C3CC=C4CC(n5cc(C)c(=O)[nH]c5=O)CCC4(C)C3CCC12C (centres undefined)")
"88 % of control"
>>> assay_value("CCOC(=O)C1(C(=O)OCC)CCC2Nc3ccccc3C(=O)N21 (centres undefined)")
"108 % of control"
>>> assay_value("Cc1ccc(S(=O)(=O)OCC(O)C2OCOC3COCOC32)cc1 (centres undefined)")
"101 % of control"
>>> assay_value("COc1cc([N+](=O)[O-])ccc1C(=O)O")
"95 % of control"
>>> assay_value("CSc1nc(N)cc(=O)[nH]1")
"96 % of control"
>>> assay_value("CCOC(=O)Nc1cc(NCCc2ccccc2)c2[nH]cnc2n1")
"90 % of control"
>>> assay_value("CC1(C)OC2C(COC(=O)Oc3ccccc3)OC(n3cnc4c(=O)[nH]c(N)nc43)C2O1 (centres undefined)")
"92 % of control"
>>> assay_value("O=C1c2ccccc2C(=O)N1c1ccc(Br)cc1")
"100 % of control"
>>> assay_value("Cc1cccc([N+](=O)[O-])c1-c1ccccc1C(=O)O")
"101 % of control"
>>> assay_value("O=C(OCC(OC(=O)c1ccccc1)C1OC(OC(=O)c2ccccc2)C(OC(=O)c2ccccc2)C1OC(=O)c1ccccc1)c1ccccc1 (centres undefined)")
"88 % of control"
>>> assay_value("CCCCCCCC(=O)N1C(=O)CCC1C(=O)O (centres undefined)")
"100 % of control"
>>> assay_value("CCOC(=O)Nc1cc2c(ncn2-c2ccccc2)c(N)n1")
"98 % of control"

---

Quick reference for T/C among some compounds
# Test system: CD2F1 mice, L1210 leukemia ip, survival T/C
# TEST: NCI In Vivo Anticancer Drug Screen. Data for tumor model L1210 Leukemia (intraperitoneal) in CD2F1 (CDF1) mice
# CONDITION SUMMARY: endpoint: mean survival time; dose: 10.0 mg/kg/injection; schedule: Q01DX001 (ip); vehicle: saline; higher = longer survival
Inconclusive results and toxic doses are left out.
MEASURED QUANTITY: T/C

>>> assay_value("CCC(CC)n1c(C)cc(=O)n1C(CC)CC")
"97 % of control"
>>> assay_value("CCN(CC)c1cccc(OC(=O)NC)c1")
"102 % of control"
>>> assay_value("C[N+](C)(C)CC1CCCC1")
"102 % of control"
>>> assay_value("CC(C)(C)N.[O]=[Cr](=[O])([OH])[OH]")
"102 % of control"
>>> assay_value("C=C(C)C1(Cc2ccccc2)C(=O)NC(=S)NC1=O")
"102 % of control"

---

# Tested on: CD2F1 mice, L1210 leukemia ip, survival T/C
# TEST: NCI In Vivo Anticancer Drug Screen. Data for tumor model L1210 Leukemia (intraperitoneal) in CD2F1 (CDF1) mice
# CONDITION SUMMARY: endpoint: mean survival time; dose: 150.0 mg/kg/injection; schedule: Q01DX001 (ip); vehicle: other; higher = longer survival
Inconclusive results and toxic doses are left out.
Quick reference for T/C among some compounds
MEASURED QUANTITY: T/C

>>> assay_value("O=C(OCC(I)CC(F)(F)C(F)(F)F)c1ccc2cc(C(=O)OC(I)CC(F)(F)C(F)(F)F)ccc2c1 (configuration not stated)")
"91 % of control"
>>> assay_value("Cc1cc(C(O)(C(=O)O)c2ccccc2)cc(C)c1C (configuration not stated)")
"90 % of control"
>>> assay_value("CCOC(=O)N1CCN(N=Nc2c(C(=O)OC)n[nH]c2C)CC1")
"105 % of control"
>>> assay_value("CCN1C(=O)/C(=C\\C=C2/SCCN2C)OC1=S")
"100 % of control"
>>> assay_value("O=Cc1ccc(O)c2ncccc12")
"95 % of control"
>>> assay_value("CC(C)Oc1ccc(N2C(=O)C(C)CNC2=S)cc1 (configuration not stated)")
"97 % of control"
>>> assay_value("CCC(C)(C)OC(=O)Nc1ccc(C)c(NC(=O)OC(C)(C)CC)c1")
"86 % of control"

---

# Test system: CD2F1 mice, L1210 leukemia ip, survival T/C
# TEST: NCI In Vivo Anticancer Drug Screen. Data for tumor model L1210 Leukemia (intraperitoneal) in CD2F1 (CDF1) mice
# CONDITION SUMMARY: endpoint: mean survival time; dose: 50.0 mg/kg/injection; schedule: Q01DX009 (ip); vehicle: water; higher = longer survival
# Protocol: The antitumor activity of compounds was measured in mice bearing transplantable tumors. Survival or tumor size were measured and the results are expressed as the measurement made in the treated group (T) divided by the measurement made in the vehicle treated control group (C). The tumor model used in this assay is L1210 Leukemia (intraperitoneal) in CD2F1 (CDF1) mice
Inconclusive results and toxic doses are left out.
MEASURED QUANTITY: T/C

>>> assay_value("CC1(C)CC(OP(=O)(OC2CC(C)(C)N(O)C(C)(C)C2)N2CC2)CC(C)(C)N1O")
"110 % of control"
>>> assay_value("Cc1c[n+]([O-])ccc1Br")
"100 % of control"
>>> assay_value("O=C1CCC(C(=O)O)=NN1")
"93 % of control"
>>> assay_value("NC(C(=O)O)C(O)c1cnc[nH]1 (stereo not drawn)")
"100 % of control"
>>> assay_value("CC(=O)OCC1OC(n2ncc3c(NCc4ccco4)ncnc32)C(O)C1O (stereo not drawn)")
"97 % of control"
>>> assay_value("CC1=C(c2ccccc2)OS(=O)(=O)NC1=O")
"93 % of control"
>>> assay_value("CN1CCC(CO)C1 (stereo not drawn)")
"87 % of control"
>>> assay_value("CC(=O)Oc1cccc2c1C(=O)c1c(OC(C)=O)cccc1C2=O")
"93 % of control"
